Sourced from patent US11691986B2

Reported values of Selectivity high ATP CDK9 over high ATP CDK2: IC50 (high ATP CDK2)/IC50 (high ATP CDK9) for individual entries
Target or test system: CDK9/CycT1 (Homo sapiens, UniProt P50750)
Construct: Recombinant full-length His-tagged human CDK9 and CycT1; His; purchased Life Technologies PV4131; host or cells: insect cells
Sequence (P50750 whole entry): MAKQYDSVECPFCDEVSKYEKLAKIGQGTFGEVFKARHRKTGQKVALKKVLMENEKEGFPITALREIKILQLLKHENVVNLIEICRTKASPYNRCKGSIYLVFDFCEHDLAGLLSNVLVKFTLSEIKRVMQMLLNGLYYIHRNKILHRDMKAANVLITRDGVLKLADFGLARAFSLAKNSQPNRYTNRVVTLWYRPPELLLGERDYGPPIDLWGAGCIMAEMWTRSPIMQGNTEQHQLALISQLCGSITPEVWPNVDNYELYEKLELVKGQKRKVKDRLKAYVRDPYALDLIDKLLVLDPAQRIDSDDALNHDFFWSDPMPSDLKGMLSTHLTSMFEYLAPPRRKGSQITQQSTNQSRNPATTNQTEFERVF
Sequence (O60563 whole entry partner): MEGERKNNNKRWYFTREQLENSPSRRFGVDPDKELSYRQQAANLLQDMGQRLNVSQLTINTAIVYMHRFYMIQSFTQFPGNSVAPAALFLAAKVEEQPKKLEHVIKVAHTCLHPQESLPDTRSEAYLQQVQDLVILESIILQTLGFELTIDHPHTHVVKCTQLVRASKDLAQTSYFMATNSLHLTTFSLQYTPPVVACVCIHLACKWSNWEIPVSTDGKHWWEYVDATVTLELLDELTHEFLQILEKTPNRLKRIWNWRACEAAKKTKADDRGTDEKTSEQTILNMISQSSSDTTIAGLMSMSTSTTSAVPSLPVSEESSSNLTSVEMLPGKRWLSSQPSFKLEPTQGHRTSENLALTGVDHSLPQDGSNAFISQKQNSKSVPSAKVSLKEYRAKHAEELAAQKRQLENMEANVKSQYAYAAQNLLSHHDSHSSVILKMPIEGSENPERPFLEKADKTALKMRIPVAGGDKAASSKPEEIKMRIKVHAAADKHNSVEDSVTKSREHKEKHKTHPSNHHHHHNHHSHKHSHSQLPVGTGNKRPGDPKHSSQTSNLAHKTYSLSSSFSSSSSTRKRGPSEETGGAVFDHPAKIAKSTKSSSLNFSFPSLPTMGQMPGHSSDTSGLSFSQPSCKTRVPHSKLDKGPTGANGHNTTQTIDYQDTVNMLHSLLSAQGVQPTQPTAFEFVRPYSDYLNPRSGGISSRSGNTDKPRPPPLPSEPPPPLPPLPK
Assay notes: CDK9/CycT1 high ATP kinase assay (TR-FRET)
Assay type: biochemical
Reported conditions: 2 mM ATP; minimal values where CDK9 IC50 is at the assay limit of about 1-2 nM
// no unit string in output, number only

Known Selectivity high ATP CDK9 over high ATP CDK2: IC50 (high ATP CDK2)/IC50 (high ATP CDK9) results, listed for orientation:
>>> df
                                   compound                     target_or_test_system  reported_measurement
0  CC(C)(C)OC(=O)N=S(C)(=O)Cc1cc2cc(c1)OCCCCCNc1cc(ccc1F)-c1nc(ncc1F)N2 (racemic)  CDK9/CycT1 (Homo sapiens, UniProt P50750)                  2740
1  CS(=N)(=O)Cc1cc2cc(c1)OCCCCCNc1cc(ccc1F)-c1nc(ncc1F)N2 (racemic)  CDK9/CycT1 (Homo sapiens, UniProt P50750)                   216
2  CC1CCCNc2cc(ccc2F)-c2nc(ncc2F)Nc2cc(CS(C)(=O)=O)cc(c2)O1 (racemic)  CDK9/CycT1 (Homo sapiens, UniProt P50750)                   606

-- ask Which Selectivity high ATP CDK9 over high ATP CDK2: IC50 (high ATP CDK2)/IC50 (high ATP CDK9) is reported for this compound? CC(C)(C)OC(=O)N=S(C)(=O)Cc1cc2cc(c1)OCCCCNc1cc(ccc1F)-c1nc(ncc1F)N2 (racemic)
-- reply 249

-- ask Which Selectivity high ATP CDK9 over high ATP CDK2: IC50 (high ATP CDK2)/IC50 (high ATP CDK9) is reported for this compound? CS(=N)(=O)Cc1cc2cc(c1)OCCCNc1cc(ccc1F)-c1nc(ncc1F)N2 (racemic)
-- reply 460

-- ask Which Selectivity high ATP CDK9 over high ATP CDK2: IC50 (high ATP CDK2)/IC50 (high ATP CDK9) is reported for this compound? CS(=N)(=O)Cc1cc2cc(c1)OCCCCNc1cc(ccc1F)-c1nc(ncc1F)N2 (single isomer, unassigned) [Example 10]
-- reply 79

-- ask Which Selectivity high ATP CDK9 over high ATP CDK2: IC50 (high ATP CDK2)/IC50 (high ATP CDK9) is reported for this compound? CSCc1cc2cc(c1)OC(C)CCCNc1cc(ccc1F)-c1nc(ncc1F)N2 (racemic)
-- reply 762
